The entries below are paired with their reported pIC50.
test_target: Integrin alpha-V/beta-6 (Homo sapiens, UniProt P06756+P18564)
Sequence (P06756 31-889 limits assumed): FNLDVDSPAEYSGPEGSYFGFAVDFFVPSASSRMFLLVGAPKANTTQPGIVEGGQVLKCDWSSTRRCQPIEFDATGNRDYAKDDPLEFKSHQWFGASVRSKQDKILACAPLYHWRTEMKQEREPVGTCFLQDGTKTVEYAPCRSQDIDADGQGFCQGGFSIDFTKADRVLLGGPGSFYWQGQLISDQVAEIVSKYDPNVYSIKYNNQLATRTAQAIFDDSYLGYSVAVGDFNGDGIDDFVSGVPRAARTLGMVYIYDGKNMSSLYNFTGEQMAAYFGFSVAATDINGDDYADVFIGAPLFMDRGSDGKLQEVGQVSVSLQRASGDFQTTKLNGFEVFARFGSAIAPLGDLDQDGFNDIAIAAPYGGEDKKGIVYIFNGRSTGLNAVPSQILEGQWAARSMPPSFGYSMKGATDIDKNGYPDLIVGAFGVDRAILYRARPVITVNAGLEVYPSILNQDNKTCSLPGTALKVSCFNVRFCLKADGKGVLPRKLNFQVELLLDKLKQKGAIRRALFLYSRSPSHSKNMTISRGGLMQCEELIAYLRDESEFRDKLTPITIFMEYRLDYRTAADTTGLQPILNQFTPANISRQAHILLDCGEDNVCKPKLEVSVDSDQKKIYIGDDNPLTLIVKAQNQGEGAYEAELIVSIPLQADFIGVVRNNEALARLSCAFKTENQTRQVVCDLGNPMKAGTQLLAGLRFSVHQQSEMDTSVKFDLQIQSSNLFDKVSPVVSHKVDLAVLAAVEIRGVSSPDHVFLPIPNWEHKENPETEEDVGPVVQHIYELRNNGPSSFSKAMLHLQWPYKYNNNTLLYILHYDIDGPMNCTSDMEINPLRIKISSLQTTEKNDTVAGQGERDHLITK
Sequence (P06756 891-1048 limits assumed): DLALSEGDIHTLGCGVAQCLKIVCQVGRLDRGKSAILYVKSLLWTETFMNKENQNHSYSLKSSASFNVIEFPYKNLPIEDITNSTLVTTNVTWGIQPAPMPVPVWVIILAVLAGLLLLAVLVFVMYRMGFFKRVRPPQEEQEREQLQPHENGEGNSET
Sequence (P18564 22-788 limits assumed): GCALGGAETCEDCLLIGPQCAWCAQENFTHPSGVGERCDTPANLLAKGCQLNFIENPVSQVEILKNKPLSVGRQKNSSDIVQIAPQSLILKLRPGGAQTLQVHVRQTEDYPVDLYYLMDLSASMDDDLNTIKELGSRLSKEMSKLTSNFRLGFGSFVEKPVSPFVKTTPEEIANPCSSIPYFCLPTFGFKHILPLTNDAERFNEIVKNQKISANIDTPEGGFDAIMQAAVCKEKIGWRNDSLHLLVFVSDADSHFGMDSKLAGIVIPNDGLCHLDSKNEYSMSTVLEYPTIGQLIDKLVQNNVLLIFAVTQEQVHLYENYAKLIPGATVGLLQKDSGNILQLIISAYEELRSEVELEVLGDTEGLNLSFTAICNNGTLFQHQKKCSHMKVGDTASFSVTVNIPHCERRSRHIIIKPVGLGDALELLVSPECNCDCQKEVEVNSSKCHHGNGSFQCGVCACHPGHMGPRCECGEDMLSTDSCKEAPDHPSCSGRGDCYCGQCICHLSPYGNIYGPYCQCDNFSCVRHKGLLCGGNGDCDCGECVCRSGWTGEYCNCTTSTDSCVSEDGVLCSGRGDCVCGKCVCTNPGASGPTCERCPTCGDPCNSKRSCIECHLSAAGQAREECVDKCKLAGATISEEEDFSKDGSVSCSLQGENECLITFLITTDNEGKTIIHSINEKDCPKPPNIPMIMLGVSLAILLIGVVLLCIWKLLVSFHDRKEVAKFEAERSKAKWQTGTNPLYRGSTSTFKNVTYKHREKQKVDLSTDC
experimental_details: Inhibition of alphavbeta6 integrin (unknown origin) by solid phase binding assay
pIC50: −log10 of the molar value.

Here is how some compounds turned out for pIC50.
[[record]]
given_smiles = "N=C(N)Nc1cc(NC(=O)CCNC(=O)C23CC4CC(CC(C4)C2)C3)cc(C(=O)NCC(=O)NC[C@H](NC(=O)[C@@H]2CCCN2S(=O)(=O)c2ccccc2)C(=O)O)c1"
test_target = "Integrin alpha-V/beta-6 (Homo sapiens, UniProt P06756+P18564)"
experimental_value = "< 5.00"

[[record]]
given_smiles = "N=C(N)Nc1cc(NC(=O)CNC(=O)C23CC4CC(CC(C4)C2)C3)cc(C(=O)NCC(=O)NC[C@H](NC(=O)[C@@H]2CCCN2S(=O)(=O)c2ccccc2)C(=O)O)c1"
test_target = "Integrin alpha-V/beta-6 (Homo sapiens, UniProt P06756+P18564)"
experimental_value = "< 5.00"


Challenge: Given the compound `N=C(N)Nc1cc(NC(=O)CCCC(=O)NC23CC4CC(CC(C4)C2)C3)cc(C(=O)NCC(=O)NC[C@H](NC(=O)[C@@H]2CCCN2S(=O)(=O)c2ccccc2)C(=O)O)c1` , write its reported pIC50.
Response given: < 5.00
